target: VP1 pentamer of BKV genotype I (truncated VP1, residues 31 to 301, Dunlop sequence with Cys 104 replaced by Ser) (BK virus genotype I (Dunlop)) (UniProt P03088); test: ELISA, coated VP1 pentamer
Sequence (P03088 31-301): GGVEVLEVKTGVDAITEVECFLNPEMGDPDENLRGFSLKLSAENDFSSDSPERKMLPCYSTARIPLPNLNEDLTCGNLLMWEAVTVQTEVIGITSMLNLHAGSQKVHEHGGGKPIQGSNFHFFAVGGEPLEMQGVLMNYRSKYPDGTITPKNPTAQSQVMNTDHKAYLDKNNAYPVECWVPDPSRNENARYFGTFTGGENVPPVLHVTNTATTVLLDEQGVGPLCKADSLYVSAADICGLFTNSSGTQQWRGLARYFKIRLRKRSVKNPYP
quantity.kind: EC50 (µg/mL)
// note: answer is a bare numeric in µg/mL

binder	recorded.number
B8P7 (antibody, V domains shown) VH: QVQLQESGPGLVRPSETLSLTCTVSGGSISPYYWNWIRQPPGKGLEWIGYIYYSGNTKYNPSLKSRVTISVDTSKNQFSLKLSSVSAADTAVYYCARDSCSGTCYLGDNWFDPWGQGTLVTVSS VL: QSVLTQPPSVSGAPGQRVTISCTGSSSNIGANNDVHWYQHLPGTAPKLLIYGNNHRPSGVPDRFSGSKSGTSASLAITGLQAEDEADYYCQSYDSSLSTSKVFGGGTKLTVL	0.05
E11P6 (antibody, V domains shown) VH: EVQLVESGGGLVQPGGSLRLSCAASGFTFRSYSMDWVRQAPGKGLEWVSYISGSSNQKYYTDSVRGRFTISRDNAKNSLFLQMNSLRAEDSAVYYCAREDDILTPLYGMDVWGPGTTVTVSS VL: EIVLTQSPDTLSLSPGARATLSCRASQSVRSNYLAWYQQKPGQAPRLLIYGASSRATAIPDRFSGSGSGTDLTLTITRLEPEDFAVYYCHQYASSPRTFGQGTKVEIK	0.6
C11P7 (antibody, V domains shown) VH: EVQLVESGGGLVQPGGSLKLSCAASGFSLSNSEVHWVRQASGKGLEWIGRVRSRANRHATGYTESVNGRFTVSRDDSKNTASLQLESLKIEDTAVYYCTGVRGVISRYFAMDVWGQGTTVTVSS VL: QSALTQPASVSGSPGQSITISCTGTSSDVGAYNYVSWYRLRPGKDPHLIIYDVSHRPAGVSNRFSGSKSGNTASLTISGLQAEDEDEYYCCSYAHRGTPLFGGGTKLTVL	6

Field: next binder
Asked: Data request, read-out EC50, for E7P5 (antibody, V domains shown) VH: QVQLQESGPGLVKPSETLSLTCTVSGGSIRNSYWSWIRQSPGKGLEWIGYIYYTGSTNSNPSLKSRLTVSVHMSQNQISLKLNSVTPADTAVYYCAQGGGSGDLHYWGQGTLVTVSS VL: QSALTQPASVSGSPGQSITISCTGTRSDVGGYNYVSWYQQHPGKAPKLIIYDISSRPSGVSNRFSASKSGNTASLTISGLQAEDEADYYCISFATGYTWVFGGGTSLTVL
Given back: 0.15
